Biological target: T1, human PVRIG-his (AcroBiosystems, Cat NO. PVG-H52H4) (human, UniProt Q6DKI7 41-171, limits assumed)
T1 construct: treated as the same protein; also called human PVRIG-His protein; Human PVRIG-His, Acro C227P1-9ARF1-T4
T1 sequence (looked up): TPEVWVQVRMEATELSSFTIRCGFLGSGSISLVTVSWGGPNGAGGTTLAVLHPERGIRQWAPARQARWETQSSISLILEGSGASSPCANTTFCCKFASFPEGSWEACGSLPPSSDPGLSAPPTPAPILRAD
Experiment: competition ELISA on coated human PVRIG-his; blocked ligand human PVRL2-mFc
quantity-measured: IC50 (read off the curve)

{"columns": ["binder", "result"],
 "data": [
  ["PVRIG-A15 (VHH, tested as VHH-hinge-CH2-CH3 (human IgG1-Fc); not shown: human IgG1 hinge-CH2-CH3) VHH: QVQLVESGGGLVQAGGSLRLSCVASGRTFSANTMAWFRQAPGKEREFVAYTRWTDDNTDYASYADFVKGRFTAFRDNTRNTMYLQMNRLRPEDTAVYYCAAATTRGTYYSAGDYNSWGQGTQVTVSS", "~2 nM"],
  ["PVRIG-A104 (VHH, tested as VHH-hinge-CH2-CH3 (human IgG1-Fc); not shown: human IgG1 hinge-CH2-CH3) VHH: EVQVVESGGGLVQAGGSLRLSCAASGRTRSMYVMGWFRQAPGKEREFVGRIKWSGDTTYTSYADFVKGRFTLYGNQARNTVYLQMNSLKPEDTAVYYCYRRSWTNTKLYWGKGIQVTVSS", "~1 nM"],
  ["PVRIG-A113 (VHH, tested as VHH-hinge-CH2-CH3 (human IgG1-Fc); not shown: human IgG1 hinge-CH2-CH3) VHH: QLQLVESGGGLVQSGGSLRLSCAASGRTRSMYVMGWFRQAPGKEREFVGRIKWSGDTTYTSYADFVKGRFTLYGNQARNTVYLQMNSLKPEDTAVYYCAALPSDYDYRAASYGVDYWGKGTLVTVSS", "~1 nM"],
  ["PVRIG-A75 (VHH, tested as VHH-hinge-CH2-CH3 (human IgG1-Fc); not shown: human IgG1 hinge-CH2-CH3) VHH: QLQLVESGGGLVQSGGSLRLSCAASGRTRSMYVMGWFRQAPGKEREFVGRIKWSGDTTYTSYADFVKGRFTLYGNQARNTVYLQMNSLKPEDTAVYSCAASKFPVSGVPEHYDYWGQGTQVTVSS", "~1 nM"],
  ["PVRIG-A60 (VHH, tested as VHH-hinge-CH2-CH3 (human IgG1-Fc); not shown: human IgG1 hinge-CH2-CH3) VHH: QVQLVESGGGLVQSGGSLRLSCAASGRTRSMYVMGWFRQAPGKEREFVGRIKWSGDTTYTSYADFVKGRFTLYGNQARNTVYLQMNSLKPEDAAVYYCNLRRLDGVNYWGKGTLVTVSS", "~1 nM"],
  ["SRF813-hIgG1 (antibody, V domains shown, human IgG1 format by its name) VH: QVQLVQSGAEVKKPGSSVKVSCKASGGTFSSAAISWVRQAPGQGLEWMGNIIPIVGIANYAQKFQGRVTITADESTSTAYMELSSLRSEDTAVYYCARDTGRGYTRHFWFDPWGQGTLVTVSS VL: DIQMTQSPSSLSASVGDRVTITCRASQSISSYLNWYQQKPGKAPKLLIYAASSLQSGVPSRFSGSGSGTDFTLTISSLQPEDFATYYCQQSDILYTFGGGTKVEIK", "~0.8 nM"],
  ["COM701-hIgG4 (antibody, V domains shown, anti-PVRIG positive control) VH: QVQLVQSGAEVKKPGASVKVSCKASGYTFTDYNINWVRQAPGQGLEWMGYIYPYIGGSGYAQKFQGRVTMTRDTSTSTVYMELSSLRSEDTAVYYCAREDKTARNAMDYWGQGTLVTVSS VL: DIQMTQSPSSLSASVGDRVTITCRVSENIYSNLAWYQQKPGKAPKLLIYEATNLAEGVPSRFSGSGSGTDFTLTISSLQPEDFATYYCQHFWGTPYTFGQGTKLEIK", "~0.8 nM"]
]}

Reference source: patent US20240343803A1
